Reference for the values: patent US20250295646A1

assay: Food effect (high-fat, high-calorie meal) on pharmacokinetics, single 20 mg dose; assay type: in vivo, human; conditions: human, plasma, po, 20 mg, single 20 mg oral dose, fasted; read-out: AUC∞, Fasted Geometric Mean (Adjusted)
measurement-type: AUC(0-inf) (ng·h/mL)
Answer in ng·h/mL, number only, no unit symbol.

Inquiry: // AUC(0-inf) lookup, key: CC(C)(C)NC(=O)CN1CCC(CNC(=O)c2cc(F)cc(Cl)c2)CC1.Cl [compound of formula (II)]
Reply text: 942

* * *

assay: Food effect (high-fat, high-calorie meal) on pharmacokinetics, single 20 mg dose; assay type: in vivo, human; settings: human, plasma, po, 20 mg, single 20 mg oral dose, high-fat/high-calorie meal; read-out: Cmax, Fed Geometric Mean (Adjusted)
measurement-type: Cmax (ng/mL)
Reply with just the number (in ng/mL).

Inquiry: Please give the measured Cmax for this molecule: CC(C)(C)NC(=O)CN1CCC(CNC(=O)c2cc(F)cc(Cl)c2)CC1.Cl
Reply text: 64.7
